- targetOrSystem: AaegOR6 (Aedes aegypti)
- Sequence (A0A1S4G757 1-398): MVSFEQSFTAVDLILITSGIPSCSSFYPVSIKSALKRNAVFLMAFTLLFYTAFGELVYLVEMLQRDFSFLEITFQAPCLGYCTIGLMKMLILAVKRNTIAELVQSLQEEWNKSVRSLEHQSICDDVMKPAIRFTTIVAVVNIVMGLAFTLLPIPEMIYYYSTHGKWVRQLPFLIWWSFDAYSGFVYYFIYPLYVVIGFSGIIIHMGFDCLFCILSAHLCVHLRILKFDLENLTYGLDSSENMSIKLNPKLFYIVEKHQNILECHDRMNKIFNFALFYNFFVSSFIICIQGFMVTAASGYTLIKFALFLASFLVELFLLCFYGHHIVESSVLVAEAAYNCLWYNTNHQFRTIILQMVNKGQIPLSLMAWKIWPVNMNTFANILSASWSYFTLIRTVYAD
- Sequence (Q178U6 whole entry partner): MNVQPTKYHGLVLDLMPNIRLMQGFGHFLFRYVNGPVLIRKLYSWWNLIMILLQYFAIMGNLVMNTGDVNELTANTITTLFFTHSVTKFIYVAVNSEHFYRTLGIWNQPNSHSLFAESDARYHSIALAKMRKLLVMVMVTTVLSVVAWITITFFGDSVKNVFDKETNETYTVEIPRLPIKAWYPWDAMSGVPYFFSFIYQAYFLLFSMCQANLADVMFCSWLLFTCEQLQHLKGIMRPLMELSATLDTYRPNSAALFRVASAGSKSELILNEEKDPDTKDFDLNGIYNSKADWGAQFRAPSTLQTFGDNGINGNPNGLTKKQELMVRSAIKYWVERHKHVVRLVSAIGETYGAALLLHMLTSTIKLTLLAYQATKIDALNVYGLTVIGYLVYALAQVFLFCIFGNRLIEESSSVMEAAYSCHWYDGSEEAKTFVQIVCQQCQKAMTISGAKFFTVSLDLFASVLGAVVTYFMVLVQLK
- protocolText: Two-electrode voltage clamp of Xenopus laevis oocytes expressing AaegOR6/Orco (blends, unitary compounds, concentration-response)
- Format: cell-based
- testSettings: Indoles 2 unitary compounds; oocyte 8
propertyLabel: Raw data (Responses in nA) Oocyte 8
One number for each entry, in nA.

c1ccc2nccnc2c1 : 0.0
Nc1cccc2cnccc12 : 0.0

Consider the record given below.
Inquiry: Find the recorded Raw data (Responses in nA) Oocyte 8 belonging to O=C(O)Cc1c[nH]c2ccccc12 and report it.
Reply text: 0.0

Provenance of the data: paper PMC11073699
